# Test system: HT29 colon
# Experimental Details: NCI-60 one-dose screen, 48 h (100 = growth as untreated, 0 = no growth, -100 = all killed)
# Assay Context: 10 µM
This is part of a sample that, as a whole, favours compounds with a hit. Of some 83,000 tested, about 20% had one in any assay.
Label yes when growth is strictly below 30%; otherwise label no.

{"Compound": "COC(=O)CNC(=O)COc1c(OC)c(OC)cc2oc(-c3cccc(C(=O)Nc4ccc(Cl)cc4)c3)cc(=O)c12", "Tgt": "HT29 colon", "Group Label": "no"}
{"Compound": "COc1cc(C2CC(c3ccccc3)=Nc3c(N)nc(N)nc3N2)ccc1Oc1nc(NCCO)nc(N2CCOCC2)n1 (configuration not stated)", "Tgt": "HT29 colon", "Group Label": "no"}
{"Compound": "COc1ccc(Cc2nn(CC(=O)N/N=C/c3ccc([N+](=O)[O-])cc3)c(=O)c3c(C)noc23)cc1", "Tgt": "HT29 colon", "Group Label": "no"}
{"Compound": "O=C(Nc1ccc(Oc2ncnc3scc(Nc4n[nH]c(=S)s4)c23)cc1)C1(C(=O)Nc2cccc(C(F)(F)F)c2)CC1", "Tgt": "HT29 colon", "Group Label": "no"}
{"Compound": "O=C(Nc1ccc(OCC(=O)c2ccc(Cl)cc2)cc1)Nc1ccc(Cl)c(C(F)(F)F)c1", "Tgt": "HT29 colon", "Group Label": "no"}
{"Compound": "O=C(Nc1ccc(OCc2ccc(Cl)cc2)cc1)Nc1ccc(Cl)c(C(F)(F)F)c1", "Tgt": "HT29 colon", "Group Label": "yes"}
{"Compound": "O=C(CN1CCN(c2ncnc3c2cnn3-c2ccccc2)CC1)Nc1ccc(Br)cc1", "Tgt": "HT29 colon", "Group Label": "no"}
{"Compound": "Cc1ccc2c(c1)C(=O)/C(=C/c1c[nH]c3ccccc13)S2", "Tgt": "HT29 colon", "Group Label": "no"}
{"Compound": "CC1(C)CC(=O)C2=C(C1)N(Cc1ccc(C(=O)O)cc1)C1=C(C(=O)CC(C)(C)C1)C2c1ccc(Cl)cc1", "Tgt": "HT29 colon", "Group Label": "no"}
{"Compound": "COc1cc2oc(-c3cccc(C(=O)Nc4ccc(Cl)cc4)c3)cc(=O)c2c(OCCN)c1OC", "Tgt": "HT29 colon", "Group Label": "yes"}
{"Compound": "COc1ccc(C2OC[C@@]3(C)C4CC[C@]5(C)C(CC=C6C7CC(C)(C)CC[C@]7(C(=O)O)CC[C@]65C)[C@@]4(C)C[C@@H](O)[C@@H]3O2)cc1 (some centres not stated)", "Tgt": "HT29 colon", "Group Label": "no"}
{"Compound": "COc1ccc2[nH]cc(-c3nc(N)nnc3-c3cn(C)c4ncc(Br)cc34)c2c1", "Tgt": "HT29 colon", "Group Label": "yes"}
{"Compound": "O=C(c1ccccc1)c1ccc2nc(-c3ccccc3Br)[nH]c2c1", "Tgt": "HT29 colon", "Group Label": "yes"}
{"Compound": "Fc1ccc(/C=C/c2nc3ccccc3n3c(-c4ccc(Cl)cc4)nnc23)cc1", "Tgt": "HT29 colon", "Group Label": "no"}
{"Compound": "CC1(C)CC[C@]2(C(=O)O)CC[C@]3(C)C(=CCC4[C@@]5(C)C[C@@H](O)[C@@H]6OC(c7cccc(F)c7)OC[C@@]6(C)C5CC[C@]43C)C2C1 (some centres not stated)", "Tgt": "HT29 colon", "Group Label": "yes"}
{"Compound": "C#CCOc1cc(N(CC)CC)ccc1C(C(=O)NC(C)(C)C)N(C(=O)C1CCc2cc(F)ccc2O1)c1ccc(F)cc1F (configuration not stated)", "Tgt": "HT29 colon", "Group Label": "no"}
